# TESTED_TARGET: T1, recombinant gp120 of HIV-1 strain IIIb (HIV-1 strain IIIb, UniProt P04578 33-511)
# T1 construct: domain: gp120; also called IIIb-derived gp120; gp 120 (IIIB strain)
# TEST_PROTOCOL: SPR BIAcore, gp120 on chip
VALUE_TYPE: log10(koff) (log10 of the value in s⁻¹)

BINDER: composite Fab H31/L42-1 (Fab, V domains shown, also called Fab of plasmid pPho-H31/L42-1 (ATCC 69691)) VH: LEQSGAEVKKPGASVKVSCQASGYRFSHFTVHWVRQAPGQRFEWHGWINPYNGNKEFSAKFQDRVTFTADTSANTAYMELRSLRSADTAVYYCARVGEWGWEMFRYDNYYMDVWGKGTTVIVSS VL: ELTQSPGTLSLSPGERATFSCRSSHQLDGSRVAWYQHKPGQAPRLVIHGVSNRASGISDRFSGSGSGTDFTLTITRVEPEDFALYYCQQYGWPFYTFGQGTKLERKR
MEASURED_RESULT: -6.76
--
BINDER: composite Fab H31/4L-14 (Fab, V domains shown) VH: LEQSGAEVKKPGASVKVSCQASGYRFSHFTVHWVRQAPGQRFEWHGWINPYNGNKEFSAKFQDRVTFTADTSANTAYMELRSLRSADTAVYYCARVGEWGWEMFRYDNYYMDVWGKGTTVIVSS VL: ELTQSPGTLSLSPGERATFSCRSSHSIRSRRVAWYQHKPGQAPRLVIHGVSNRASGISDRFSGSGSGTDFTLTITRVEPEDFALYYCQVYGASSYTFGQGTKLERKR
MEASURED_RESULT: -5.47
--
BINDER: composite Fab H33/L42-17 (Fab, V domains shown) VH: LEQSGAEVKKPGASVKVSCQASGYRFSHFTLHWVRQAPGQRFEWHGWINPYNGNKEFSAKFQDRVTFTADTSANTAYMELRSLRSADTAVYYCARVGEWGWEMFRYDNYYMDVWGKGTTVIVSS VL: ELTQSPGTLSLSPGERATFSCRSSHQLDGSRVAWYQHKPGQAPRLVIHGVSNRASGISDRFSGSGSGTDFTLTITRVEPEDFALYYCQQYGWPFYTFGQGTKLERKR
MEASURED_RESULT: -4.75
--
BINDER: composite Fab H101/L42-1 (Fab, V domains shown) VH: LEQSGAEVKKPGASVKVSCQASGYRFSHFTVHWVRQAPGQRFEWHGWINPYNGNKEFSAKFQDRVTFTADTSANTAYMELRSLRSADTAVYYCARVGEWGWHQRRYDNYYMDVWGKGTTVIVSS VL: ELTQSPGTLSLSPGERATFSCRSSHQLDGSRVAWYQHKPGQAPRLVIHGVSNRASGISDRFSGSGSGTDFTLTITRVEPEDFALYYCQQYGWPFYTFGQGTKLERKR
MEASURED_RESULT: -4.76
--
BINDER: composite Fab H33/LH-11 (Fab, V domains shown) VH: LEQSGAEVKKPGASVKVSCQASGYRFSHFTLHWVRQAPGQRFEWHGWINPYNGNKEFSAKFQDRVTFTADTSANTAYMELRSLRSADTAVYYCARVGEWGWEMFRYDNYYMDVWGKGTTVIVSS VL: ELTQSPGTLSLSPGERATFSCRSSHQLDGSRVAWYQHKPGQAPRLVIHGVSNRASGISDRFSGSGSGTDFTLTITRVEPEDFALYYCQTYGRGHYTFGQGTKLERKR
MEASURED_RESULT: -5.26
--
BINDER: composite Fab H101/4L-1 (Fab, V domains shown) VH: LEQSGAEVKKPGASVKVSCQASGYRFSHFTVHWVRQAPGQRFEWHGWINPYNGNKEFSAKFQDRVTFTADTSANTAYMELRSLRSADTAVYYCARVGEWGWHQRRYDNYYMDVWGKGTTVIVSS VL: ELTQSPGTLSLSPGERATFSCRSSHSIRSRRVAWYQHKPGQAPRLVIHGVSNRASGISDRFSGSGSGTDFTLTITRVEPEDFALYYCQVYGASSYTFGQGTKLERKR
MEASURED_RESULT: -4.47
--
BINDER: composite Fab H103/L42-4 (Fab, V domains shown) VH: LEQSGAEVKKPGASVKVSCQASGYRFSHFTLHWVRQAPGQRFEWHGWINPYNGNKEFSAKFQDRVTFTADTSANTAYMELRSLRSADTAVYYCARVGEWGWHQRRYDNYYMDVWGKGTTVIVSS VL: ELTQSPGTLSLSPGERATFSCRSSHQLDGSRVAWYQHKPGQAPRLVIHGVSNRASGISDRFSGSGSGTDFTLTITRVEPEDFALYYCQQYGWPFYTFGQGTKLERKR
MEASURED_RESULT: -5.03
--
BINDER: composite Fab H101/L42-16 (Fab, V domains shown) VH: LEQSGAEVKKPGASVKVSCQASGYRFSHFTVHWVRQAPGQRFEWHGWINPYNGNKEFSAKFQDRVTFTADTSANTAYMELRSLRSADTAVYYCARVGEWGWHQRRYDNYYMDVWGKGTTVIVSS VL: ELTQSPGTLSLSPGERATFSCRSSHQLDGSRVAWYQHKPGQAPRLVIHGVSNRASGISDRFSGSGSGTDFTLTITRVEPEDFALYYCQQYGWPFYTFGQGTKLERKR
MEASURED_RESULT: -4.92
--
BINDER: composite Fab 4H/L42-1 (Fab, V domains shown) VH: LEQSGAEVKKPGASVKVSCQASGYRFSNFVIHWVRQAPGQRFEWMGWINPYNGNKEFSAKFQDRVTFTADTSANTAYMELRSLRSADTAVYYCARVGPYSWDDSPQDNYYMDVWGKGTTVIVSS VL: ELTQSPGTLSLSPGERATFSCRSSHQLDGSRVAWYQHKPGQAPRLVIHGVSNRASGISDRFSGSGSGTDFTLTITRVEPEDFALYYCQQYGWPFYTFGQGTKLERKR
MEASURED_RESULT: -3.21
